biological target: the molecule itself; experiment: split reporter (BiFC, NanoBiT); split-GFP (NGFP and CGFP of salt-stable mGFP2) in Hfx. volcanii transformants, 24 h 37 °C then 24 h 30 °C; relative fluorescence (rf) against the wild type; the highest of eight tag combinations is given
metric: relative fluorescence (rf) (LAU/mm^2)
Report the value in LAU/mm^2 with no unit label.

(Q) Reported relative fluorescence (rf), protein GvpC C-terminal fragment Cterm (domain or fragment, Halobacterium salinarum, UniProt P24574 329-382, looked up, GvpC of Halobacterium salinarum, aa 329-382, the globular C-terminal domain with a zinc-finger motif; GFP fragment at the N- or C-terminus; source: Hfx. volcanii WR340 transformant, split-GFP fusion in living cells) ETEEEAPEDMVQCRVCGEYYQAITEPHLQTHDMTIQEYRDEYGEDVPLRPDDKT : ____
(A) 20.7
